All figures here come from patent US20030237104A1.

tested on: non-Tg mice (CB6F1); conditions: mouse, in vivo
MEASURED ATTRIBUTE: Malignant Tumors Non-Tg

COMPOUND	MEASURED ATTRIBUTE	VAL
C[N+]([O-])=NCO	Malignant Tumors Non-Tg	−
O=[N+]([O-])c1cc[n+]([O-])c2ccccc12 [4NQO, 4-Nitroquinoline-1-oxide]	Malignant Tumors Non-Tg	−
[O-][n+]1ccc(NO)c2ccccc21 [4HAQO, 4-Hydroxyaminoquinoline-1-oxide]	Malignant Tumors Non-Tg	+
CN(N=O)C(N)=O	Malignant Tumors Non-Tg	−
C=COC(N)=O [Vinyl carbamate]	Malignant Tumors Non-Tg	+
S=C1NCCN1	Malignant Tumors Non-Tg	+
O=P1(N(CCCl)CCCl)NCCCO1 (stereo not shown) [Cyclophosphamide]	Malignant Tumors Non-Tg	−
